Assign hERG current change (%, negative = inhibition) at 10uM to each entry below.
# target system: human ether-à-go-go-related gene (hERG) potassium channel (human);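 further: peak tail current of the secondary pulse compared with the same well before compound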
# Sequence (Q12809 whole entry, looked up): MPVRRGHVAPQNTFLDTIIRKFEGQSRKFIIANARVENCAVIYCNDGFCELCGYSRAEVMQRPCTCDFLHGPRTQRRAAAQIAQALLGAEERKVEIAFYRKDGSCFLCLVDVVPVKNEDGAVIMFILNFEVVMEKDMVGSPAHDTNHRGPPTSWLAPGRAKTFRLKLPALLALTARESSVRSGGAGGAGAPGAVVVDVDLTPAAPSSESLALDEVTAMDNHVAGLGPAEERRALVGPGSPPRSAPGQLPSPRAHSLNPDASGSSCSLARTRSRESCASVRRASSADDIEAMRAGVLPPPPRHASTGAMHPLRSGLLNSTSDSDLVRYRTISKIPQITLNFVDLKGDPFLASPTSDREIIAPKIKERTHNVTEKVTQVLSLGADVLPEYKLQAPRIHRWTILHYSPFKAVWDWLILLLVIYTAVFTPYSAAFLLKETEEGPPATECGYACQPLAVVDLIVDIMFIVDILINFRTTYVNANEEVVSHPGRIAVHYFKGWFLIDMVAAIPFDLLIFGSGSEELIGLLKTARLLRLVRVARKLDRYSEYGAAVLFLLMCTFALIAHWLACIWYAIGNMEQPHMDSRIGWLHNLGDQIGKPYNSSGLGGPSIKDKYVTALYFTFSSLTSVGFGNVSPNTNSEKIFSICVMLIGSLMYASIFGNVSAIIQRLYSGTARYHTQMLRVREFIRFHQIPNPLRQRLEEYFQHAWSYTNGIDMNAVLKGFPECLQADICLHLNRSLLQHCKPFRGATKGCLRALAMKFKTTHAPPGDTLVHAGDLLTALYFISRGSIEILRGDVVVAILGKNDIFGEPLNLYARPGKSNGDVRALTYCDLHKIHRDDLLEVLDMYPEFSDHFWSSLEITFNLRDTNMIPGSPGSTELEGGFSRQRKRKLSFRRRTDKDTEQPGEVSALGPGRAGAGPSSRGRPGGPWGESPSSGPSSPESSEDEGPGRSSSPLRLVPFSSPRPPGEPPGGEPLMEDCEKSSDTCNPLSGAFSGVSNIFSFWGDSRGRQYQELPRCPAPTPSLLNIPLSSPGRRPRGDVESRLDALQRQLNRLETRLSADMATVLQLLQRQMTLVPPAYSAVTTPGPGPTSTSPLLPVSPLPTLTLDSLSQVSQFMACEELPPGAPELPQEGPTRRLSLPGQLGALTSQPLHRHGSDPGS
# assay details: primary screen, population patch clamp on CHO cells stably expressing hERG; higher = less effect of the substance
# Protocol: Briefly, Chinese hamster ovary (CHO) cells stably expressing the hERG channel were dislodged from tissue culture flasks and dispensed into PPC plates. […] During the recording, background leak currents were estimated by a 100 ms step to -80 mV from an initial holding potential of -70 mV and subtracted from the subsequent current measurement. The campaign was conducted in two phases using slight differences in recording protocol. […]
Hit rate of the full screen: of about 310,000 compounds, about 14,000 (4.5%) showed an effect of 50% or more. Effects have a minus sign here. The sample as a whole holds a higher share of strong results than the screen did.
Your answer should be a plain number; it is taken to be in %.

Q) # lookup: hERG current change (%, negative = inhibition) at 10uM of `COc1cc2c(C(=O)NCCCN3CCN(c4cccc(Cl)c4)CC3)cn(C)c(=O)c2cc1OC`
A) -46

Q) # lookup: hERG current change (%, negative = inhibition) at 10uM of `Cc1ccccc1-c1noc(CCC(=O)NCc2ccco2)n1`
A) -2.05

Q) # lookup: hERG current change (%, negative = inhibition) at 10uM of COc1cccc(C2CCCCN2Cc2nc(-c3ccc(C)o3)oc2C)c1 (centres unmarked)
A) -12.5

Q) # lookup: hERG current change (%, negative = inhibition) at 10uM of `Cc1ccc(OCCC(=O)Nc2ccc3c(c2)OCO3)cc1`
A) 0.269

Q) # lookup: hERG current change (%, negative = inhibition) at 10uM of `CN(C)CCCNC(=O)c1ccc(Cl)c(S(=O)(=O)N2CCCCCC2)c1.Cl`
A) -72.4

Q) # lookup: hERG current change (%, negative = inhibition) at 10uM of COc1ccc(CN2CCN(CC=C(C)C)C(CCO)C2)cc1Cn1cncn1 (centres unmarked)
A) -0.719

Q) # lookup: hERG current change (%, negative = inhibition) at 10uM of COc1cccc(C(=O)C2CCCN(Cc3ccc4nonc4c3)C2)c1 (centres unmarked)
A) -48.5

Q) # lookup: hERG current change (%, negative = inhibition) at 10uM of `CCN(CC(=O)NCc1cccs1)C(=O)/C=C/c1ccc(OC)c(OC)c1`
A) -23.5

Q) # lookup: hERG current change (%, negative = inhibition) at 10uM of `CCn1cc(C(=O)N2CCN(c3ccc(F)cc3)CC2)c2cc(OC)c(OC)cc2c1=O`
A) -69.5

Q) # lookup: hERG current change (%, negative = inhibition) at 10uM of O=C(NCC(O)c1ccccc1)c1ccc(Cl)c(S(=O)(=O)N2CCCC2)c1 (centres unmarked)
A) -0.367

Q) # lookup: hERG current change (%, negative = inhibition) at 10uM of COc1cccc(C(=O)C2CCCN(Cc3ccc(OC)c(Cn4cncn4)c3)C2)c1 (centres unmarked)
A) -58.6

Q) # lookup: hERG current change (%, negative = inhibition) at 10uM of Cc1oc(-c2cccc(F)c2)nc1CN1CCCCC1CCn1cccn1 (centres unmarked)
A) -73.1

Q) # lookup: hERG current change (%, negative = inhibition) at 10uM of `CCN(CC)CCNC(=O)c1ccc(Cl)c(S(=O)(=O)N2CCCCCC2)c1.Cl`
A) -67.4

Q) # lookup: hERG current change (%, negative = inhibition) at 10uM of `COc1ccccc1NS(=O)(=O)c1cc(-c2cnc(C3CC3)o2)ccc1C`
A) 3.37

Q) # lookup: hERG current change (%, negative = inhibition) at 10uM of `Cc1ccc(CNC(=O)c2ccc(Cl)c(S(=O)(=O)N3CCCCC3)c2)cc1`
A) -27.3

Q) # lookup: hERG current change (%, negative = inhibition) at 10uM of `Cc1nn(Cc2n[nH]c(=S)n2Cc2ccccc2)c(C)c1Cl`
A) 14

Q) # lookup: hERG current change (%, negative = inhibition) at 10uM of CCN1CCCC1CNC(=O)C1CCN(Cc2nc(-c3cccc(Br)c3)oc2C)CC1 (centres unmarked)
A) -9.4

Q) # lookup: hERG current change (%, negative = inhibition) at 10uM of CCOc1ccc(-c2nc(CN3CCCCC3CCn3cccn3)c(C)o2)cc1 (centres unmarked)
A) -71.5

Q) # lookup: hERG current change (%, negative = inhibition) at 10uM of CN(C)C(CNC(=O)c1ccc(Cl)c(S(=O)(=O)N2CCCCCC2)c1)c1ccccc1 (centres unmarked)
A) -67.5

Q) # lookup: hERG current change (%, negative = inhibition) at 10uM of Cc1oc(-c2ccccc2Cl)nc1CN1CCCCC1CO (centres unmarked)
A) -20.5
